Tested on: BJ
Experiment: Cytotoxicity against human BJ cells after 24 hrs by redox-sensitive dye based fluorescent assay
Type: cell-based
readout name: IC50

Below, 6 molecules whose answers are already recorded.
query: What measured IC50 goes with "C=CCSc1nn2c(C=O)c(-c3ccccc3)nc2s1" ?
result: > 50 µM

query: Entry under review: "CCOC(=O)c1sc(N/N=C/c2c(-c3ccc(Cl)cc3)[nH]c3ccccc23)nc1C" . Reported IC50?
result: > 50 µM

query: Could you tell me which IC50 is on file for O=C(CC1S/C(=N\N=C\c2c(-c3ccccc3)[nH]c3ccccc23)NC1=O)c1ccccc1 (stereo not drawn) ?
result: > 50 µM

query: Entry "C[C@@H]1[C@H](O)[C@@H](C)/C=C/C=C/C=C/C=C/C=C/C=C/C=C/[C@H](O[C@@H]2O[C@H](C)[C@@H](O)[C@H](N)[C@@H]2O)C[C@@H]2O[C@](O)(C[C@@H](O)C[C@@H](O)[C@H](O)CC[C@@H](O)C[C@@H](O)CC(=O)O[C@H]1C)C[C@H](O)[C@H]2C(=O)O" has what IC50?
result: > 50 µM

query: Form field: reported IC50 of O=C(CC1S/C(=N\N=C\c2c(-c3ccccc3)[nH]c3ccccc23)NC1=O)c1ccc(F)cc1 (stereo not drawn)
result: > 50 µM

query: # input molecule: CC1S/C(=N\N=C\c2c(-c3ccc(Br)cc3)[nH]c3ccccc23)NC1=O (stereo not drawn) ; wanted: its IC50
result: > 50 µM

More entries:
query: Look up IC50 for this molecule: "C[C@@H]1CC[C@@H]2[C@@H](C1)c1sc(=O)n(CC(=O)Nc3cccc(C(F)(F)F)c3)c1SC2(C)C"
result: > 50 µM

query: What does the record list as IC50 for "CCCCCCCCCCCCCCCCOP(=O)([O-])OCC[N+](C)(C)C" ?
result: > 50 µM

query: Report IC50 for O=C1N/C(=N/N=C/c2c(-c3ccc(Br)cc3)[nH]c3ccccc23)SC1CCO (stereo not drawn) please.
result: 29.2 µM

###

Parameter pIC50: see the listing below.
System: BJ
Assay: Cytotoxicity against human BJ cells after 24 hrs by redox-sensitive dye based fluorescent assay
Assay type: cell-based
Lab note — pIC50 values are minus log10 of concentrations in M.

query: Bench note: what pIC50 did CCC1S/C(=N\N=C\c2c(-c3ccc(Br)cc3)[nH]c3ccccc23)NC1=O (centres undefined) show?
result: 5.13

query: Data request, read-out pIC50, for O=C1N/C(=N/N=C/c2c(-c3ccc(Cl)cc3)[nH]c3ccccc23)SC1CCO (centres undefined)
result: 4.65

query: Value lookup for pIC50; key = C=CCSc1nn2c(/C=N/N=C3/NC(=O)C(CCOC(C)=O)S3)c(-c3ccccc3)nc2s1 (centres undefined)
result: 4.46

Next compound, please.
query: Form field: reported pIC50 of CCC1S/C(=N\N=C\c2c(-c3ccc([N+](=O)[O-])cc3)[nH]c3ccccc23)NC1=O (centres undefined)
result: 4.53

###

Readings of IC50 for the listed compounds
System: Trypanosoma brucei gambiense
Experiment: Antitrypanosomal activity against bloodstream form of Trypanosoma brucei gambiense Feo assessed as reduction in parasite growth
Format: functional, organism-based
Just the number please, in µM, no unit attached.

Study these solved cases before continuing.
query: Give its IC50 value. Item: CCOC(=O)C(Cc1ccccc1)N1C(=O)/C(=C/Nc2nccs2)SC1=S (configuration not stated)
result: 13.4

query: Please give the measured IC50 for this compound: "C=CCSc1nn2c(C=O)c(-c3ccccc3)nc2s1"
result: 2.34

query: Report IC50 for "O=C1CS/C(=N/N=C/c2c(-c3ccc(Cl)cc3)[nH]c3ccccc23)N1Cc1ccco1" please.
result: 7.31

Others:
query: Quick one: IC50 of CCOC(=O)C(Cc1ccccc1)N1C(=O)/C(=C/Nc2ncc(Cc3ccc(Cl)cc3Cl)s2)SC1=S (configuration not stated) ?
result: 1.85

Data credit: ChEMBL document CHEMBL4665886
